Overview of recorded folding stability dG unfold for various sequences
experiment: folding stability dG unfold from chymotrypsin proteolysis; higher = more stable

>  <seq>
SAMKPKEVVIEISVEELRKLAKELFPEKELTLEELKNLVKELLEKLGIKVKKVEIVKVDPEKKRIVIKVSAG [r14_303_TrROS_Hall]

>  <scale unit>
kcal/mol

>  <folding stability dG unfold>
1.72

$$$$
>  <seq>
SAGGSPIQTAVTTNTLGNETITTTTLVPPEAVATSVTTVYEPDPNSDNYVVKSVLTTTTSTLPPSDAASAGG [r13_568_JUSTAS]

>  <scale unit>
kcal/mol

>  <folding stability dG unfold>
0.0608

$$$$
>  <seq>
SALLEPLLLEVYIPATGEVITVPAKSLEEAEAIIAEVRADPTVASVRITLPDGTVVEVSFNVSPAAYLKSAG [r14_747_JUSTAS]

>  <scale unit>
kcal/mol

>  <folding stability dG unfold>
0.13

$$$$
>  <seq>
SAGGSAGGSIVFRSPEQAKEWLDNFPPGNEVNIHVQGPDTGQPQEFEIKIPPPKPEYDPDGKPSAGGSAGGS [r12_393_TrROS]

>  <scale unit>
kcal/mol

>  <folding stability dG unfold>
-0.773

$$$$
>  <seq>
SAGGSAGGSAGMVETVSTTTSVETGPDSTRYTTTTTTVLVTDSSGTPIATTTTTTTTVTASAGGSAGGSAGG [r17_139_JUSTAS]

>  <scale unit>
kcal/mol

>  <folding stability dG unfold>
0.314

$$$$
>  <seq>
SAGGSAGGSAEELLKKLAEELGLEEGDEVTIEVDGKLIKIYFNKDGKIVKVEVYELDPEDLSAGGSAGGSAG [r3_468_TrROS_Hall]

>  <scale unit>
kcal/mol

>  <folding stability dG unfold>
3.59

$$$$
>  <seq>
SAGGDPIEDIVKEIAEEHGYPIKNVEVEPVDPNTLVVEVQMPNGYRIKIEIPYDPDGDLNINVEWEPSAGGS [r8_284_TrROS]

>  <scale unit>
kcal/mol

>  <folding stability dG unfold>
2.04

$$$$
